Assay: Dog pharmacokinetic study
Type: in vivo
Details: dog, plasma, sc, 67 ug/kg; male beagle dogs, subcutaneous 67 μg/kg
Where a SMILES comes first, the peptide text is derived from it. [ ]: non-standard residue; d: D form. ξ: configuration not given here. Ala(6-(2-MePh)pyridin-3-yl) = Cc1ccccc1-c1ccc(C[C@H](N)C(=O)O)cn1; Bip(2'-Et-4'-OMe) = CCc1cc(OC)ccc1-c1ccc(C[C@H](N)C(=O)O)cc1; ξαMePhe(2-F) = CC(N)(Cc1ccccc1F)C(=O)O; Thr(3ξ) = CC(O)[C@H](N)C(=O)O; Aib = CC(C)(N)C(=O)O
MEASUREMENT NAME: Tmax (h)

CCc1cc(OC)ccc1-c1ccc(C[C@H](NC(=O)[C@H](CC(=O)O)NC(=O)[C@H](CO)NC(=O)[C@@H](NC(=O)C(C)(Cc2ccccc2F)NC(=O)[C@@H](NC(=O)CNC(=O)[C@H](CCC(=O)O)NC(=O)C(C)(C)NC(=O)[C@@H](N)Cc2c[nH]cn2)C(C)O)C(C)O)C(=O)N[C@@H](Cc2ccc(-c3ccccc3C)nc2)C(N)=O)cc1 (stereo partly shown) [SEQ ID NO: 9] (H-H[Aib]EG[Thr(3ξ)][ξαMePhe(2-F)][Thr(3ξ)]SD[Bip(2'-Et-4'-OMe)][Ala(6-(2-MePh)pyridin-3-yl)]-NH2) | 1.1

====

Experiment: Dog pharmacokinetic study
Assay type: in vivo
Conditions: sc 67 μg/kg; vehicle propylene glycol/pH 7.4 phosphate buffer (1:1)
Procedure: The pharmacokinetic parameters of the Compounds of SEQ ID NO: 9, 118, 151 and 158 were determined in male beagle dogs (n=3-4, 14±1 kg). […] Plasma drug levels were determined using the LC-MS/MS assay described below. […] The standard curve concentrations, ranging from 1 to 1000 nM, were analyzed in duplicate. […] Quality control (QC) samples, prepared in blank matrix at the same concentrations as the standards were also analyzed in each analytical set. […]
Where a SMILES comes first, the peptide text is derived from it. [ ]: non-standard residue; d: D form. The star is where a group is joined. ξ: configuration not given here. Ala(6-(2-MePh)pyridin-3-yl) = Cc1ccccc1-c1ccc(C[C@H](N)C(=O)O)cn1; Bip(2'-Et-4'-OMe) = CCc1cc(OC)ccc1-c1ccc(C[C@H](N)C(=O)O)cc1; αMePhe(2,6-F2) = C[C@](N)(Cc1c(F)cccc1F)C(=O)O; αMePhe(2-F) = C[C@](N)(Cc1ccccc1F)C(=O)O; ξαMePhe(2-F) = CC(N)(Cc1ccccc1F)C(=O)O; Thr(3ξ) = CC(O)[C@H](N)C(=O)O; αMeP = C[C@@]1(C(=O)O)CCCN1; ξαMeP = CC1(C(=O)O)CCCN1; Aib = CC(C)(N)C(=O)O; Moc = COC(=O)*
Returns: string. Value is rule met if measured Exposure in dogs (sc@67 μg/kg) is below 1 µM·h, and rule not met if it is greater than or equal to it.

CCc1cc(OC)ccc1-c1ccc(C[C@H](NC(=O)[C@H](CC(=O)O)NC(=O)[C@H](CO)NC(=O)[C@@H](NC(=O)C(C)(Cc2ccccc2F)NC(=O)[C@@H](NC(=O)CNC(=O)[C@H](CCC(=O)O)NC(=O)C(C)(C)NC(=O)[C@@H](N)Cc2c[nH]cn2)C(C)O)C(C)O)C(=O)N[C@@H](Cc2ccc(-c3ccccc3C)nc2)C(N)=O)cc1 (some centres unmarked) [SEQ ID NO: 9] (H-H[Aib]EG[Thr(3ξ)][ξαMePhe(2-F)][Thr(3ξ)]SD[Bip(2'-Et-4'-OMe)][Ala(6-(2-MePh)pyridin-3-yl)]-NH2) | rule not met
CCc1cc(OC)ccc1-c1ccc(C[C@H](NC(=O)[C@H](CC(=O)O)NC(=O)[C@H](Cc2c[nH]cn2)NC(=O)[C@@H](NC(=O)[C@](C)(Cc2ccccc2F)NC(=O)[C@@H](NC(=O)CNC(=O)[C@H](CCC(=O)O)NC(=O)[C@]2(C)CCCN2C(=O)[C@@H](N)Cc2c[nH]cn2)[C@@H](C)O)[C@@H](C)O)C(=O)N[C@@H](Cc2ccc(-c3ccccc3C)nc2)C(N)=O)cc1 [SEQ ID NO: 120] (H-H[αMeP]EGT[αMePhe(2-F)]THD[Bip(2'-Et-4'-OMe)][Ala(6-(2-MePh)pyridin-3-yl)]-NH2) | rule not met
CCc1cc(OC)ccc1-c1ccc(C[C@H](NC(=O)[C@H](CC(=O)O)NC(=O)[C@H](CO)NC(=O)[C@@H](NC(=O)C(C)(Cc2ccccc2F)NC(=O)[C@@H](NC(=O)CNC(=O)[C@H](CCC(=O)O)NC(=O)C2(C)CCCN2C(=O)[C@H](Cc2c[nH]cn2)NC(=O)OC)[C@@H](C)O)[C@@H](C)O)C(=O)N[C@@H](Cc2ccc(-c3ccccc3C)nc2)C(N)=O)cc1 (some centres unmarked) [SEQ ID NO: 139] (Moc-H[ξαMeP]EGT[ξαMePhe(2-F)]TSD[Bip(2'-Et-4'-OMe)][Ala(6-(2-MePh)pyridin-3-yl)]-NH2) | rule not met
CCc1cc(OC)ccc1-c1ccc(C[C@H](NC(=O)[C@H](CC(=O)O)NC(=O)[C@H](CO)NC(=O)[C@@H](NC(=O)[C@](C)(Cc2ccccc2F)NC(=O)[C@@H](NC(=O)CNC(=O)[C@H](CCC(=O)O)NC(=O)[C@@H](C)NC(=O)[C@@H](N)Cc2c[nH]cn2)[C@@H](C)O)[C@@H](C)O)C(=O)N[C@@H](Cc2ccc(-c3ccccc3C)nc2)C(N)=O)cc1 [SEQ ID NO: 149] (H-H[dA]EGT[αMePhe(2-F)]TSD[Bip(2'-Et-4'-OMe)][Ala(6-(2-MePh)pyridin-3-yl)]-NH2) | rule met
CCc1cc(OC)ccc1-c1ccc(C[C@H](NC(=O)[C@H](CC(=O)O)NC(=O)[C@H](CO)NC(=O)[C@@H](NC(=O)[C@](C)(Cc2c(F)cccc2F)NC(=O)[C@@H](NC(=O)CNC(=O)[C@H](CCC(=O)O)NC(=O)[C@]2(C)CCCN2C(=O)[C@H](Cc2c[nH]cn2)NC(=O)OC)[C@@H](C)O)[C@@H](C)O)C(=O)N[C@@H](Cc2ccc(-c3ccccc3C)nc2)C(N)=O)cc1 [SEQ ID NO: 140] (Moc-H[αMeP]EGT[αMePhe(2,6-F2)]TSD[Bip(2'-Et-4'-OMe)][Ala(6-(2-MePh)pyridin-3-yl)]-NH2) | rule met
